Tested on: NRF2 (nuclear factor erythroid 2-related factor 2)
protocol: NRF2 +/-GSH activation assay (DiscoverX PathHunter NRF2 translocation kit, U2OS cells)
Format: cell-based
cond: +GSH; 30 minute compound-GSH pre-incubation; read-out: NRF2 activation +GSH EC50
Where a name gives a salt, the structure may show the parent alone.
Here the recorded pEC50 is given for each entry.
In plain terms, pEC50 is the concentration in mol/L turned into minus its base-10 logarithm.

Study these solved cases before continuing.
molecule	metricName	observedResult
C=C(Cc1nc(-c2ccc(OCCCC)c(C(F)(F)F)c2)no1)C(=O)O	pEC50	5.14
C=C(Cc1nc(C(F)(F)c2ccc(SC(F)(F)F)cc2)no1)C(=O)O	pEC50	4.86
C=C(Cc1nc(Cc2ccc(-c3ccc(Cl)cc3)cc2)no1)C(=O)O	pEC50	5.13
C=C(Cc1nc(Cc2cccc(CCCC)c2)no1)C(=O)O	pEC50	4.95
C=C(Cc1nc(Cc2ccc(C3CCCC3)cc2)no1)C(=O)O	pEC50	4.97

// switching to the query molecule
Query C=C(Cc1cc(CCCCCCCC)ccn1)C(=O)O [Example 104, trifluoroacetic acid salt] yields pEC50 of 5.09
